// provenance: the array DNA melting data of Ke et al. (doi:10.1101/2024.01.08.574731)

- Assay procedure: melting temperature; fluorescence melt of hairpins on a sequencing array, two-state fit, raised by 9.35 °C to match UV melts
- Condition info: sodium 0.088 M
Please enter true where Tm is greater than or equal to 50 °C, and false where it is lower.

Ask: Is Tm at least 50 °C? Consider GGAGTCGGAAACGGTTCC (((..((....))..)))
Reply: false

Ask: Is Tm at least 50 °C? Consider GACCGGGGAAACCCGATC ((.((((....)))).))
Reply: false

Ask: Is Tm at least 50 °C? Consider GTCTACGGAAACGTAAAC ((.((((....)))).))
Reply: false

Ask: Is Tm at least 50 °C? Consider GGTGGGCGAAAGCCAACC (((.(((....))).)))
Reply: true

Ask: Is Tm at least 50 °C? Consider GTACATCGAAAGATTTAC (((.(((....))).)))
Reply: false

Ask: Is Tm at least 50 °C? Consider GAGAGCGAAAGCTACCTC ((((((....)))..)))
Reply: false

Ask: Is Tm at least 50 °C? Consider GATCATGGACATGATC ((((((....))))))
Reply: true

Ask: Is Tm at least 50 °C? Consider GATCTATGACTAGATC ((((((....))))))
Reply: false

Ask: Is Tm at least 50 °C? Consider CGATCGGAAACGAGTTCG ((((((....)))..)))
Reply: false

====

Assignment: determine reported folding enthalpy for the given sequences.
- Assay procedure: folding enthalpy; higher = less favourable; fluorescence melt of hairpins on a sequencing array, two-state fit
- Condition info: sodium 0.088 M

Record GGCGTCCGAAAGGAAGCC (((.(((....))).))) , field folding enthalpy: -34.7 kcal/mol

Record GACTACGGAAACGTGGTC (((.(((....))).))) , field folding enthalpy: -42.8 kcal/mol

Record GATCTACGGCTAGATC ((((((....)))))) , field folding enthalpy: -28.7 kcal/mol

Record GCCGGCGAAAGCCGAGGC ((((((....)))..))) , field folding enthalpy: -13.4 kcal/mol

Record GATCGAATCTCGATC ((((((...)))))) , field folding enthalpy: -38.2 kcal/mol

Record GTATTCGCGAAAGCGTAC (((..(((....)))))) , field folding enthalpy: -8 kcal/mol

Record GGTTCCGAAAGGAGTACC ((((((....)))..))) , field folding enthalpy: -21 kcal/mol

Record GCTTGGCGAAAGCTAAGC ((((.((....)).)))) , field folding enthalpy: -30 kcal/mol

Record GCACAGCGAAAGCTATGC (((.(((....))).))) , field folding enthalpy: -40.8 kcal/mol

Record GGGTCTGAAAAGACCC ((((((....)))))) , field folding enthalpy: -26 kcal/mol

Record GCTGCTCCGAAAGGAAGC (((..(((....)))))) , field folding enthalpy: -14.1 kcal/mol

Record GTTACCCGAAAGGGGAAC (((.(((....))).))) , field folding enthalpy: -32.2 kcal/mol

Record GGTGAGGGAAACCTCGTC (..((((....))))..) , field folding enthalpy: -13.3 kcal/mol

Record GATCGACTATTCGATC ((((((....)))))) , field folding enthalpy: -38.4 kcal/mol

Record GGGAGTCGAAAGACACCC (((.(((....))).))) , field folding enthalpy: -30 kcal/mol

Record GACAACGGAAACGTTATC ((.((((....)))).)) , field folding enthalpy: -21 kcal/mol

Record GACCCTGGAAACAGGGTC (((((((....))))))) , field folding enthalpy: -36.9 kcal/mol

Record GTGTAAGGAAACTTACAC (((((((....))))))) , field folding enthalpy: -42.2 kcal/mol

Record GCACGGCGAAAGCTTTGC (((..((....))..))) , field folding enthalpy: -22.6 kcal/mol

Record GACGACGAAAGTCTGGTC ((((((....)))..))) , field folding enthalpy: -21.8 kcal/mol

Record GCAATCACGAAAGTGTGC (((..(((....)))))) , field folding enthalpy: -19.5 kcal/mol

Record GATCCATTATTGGATC ((((((....)))))) , field folding enthalpy: -37.1 kcal/mol

Record GATCTTGGGTAAGATC ((((((....)))))) , field folding enthalpy: -27.6 kcal/mol

Record GCGTAGCGAAAGCCACGC ((((.((....)).)))) , field folding enthalpy: -18.7 kcal/mol

Record GCGAAAGGAAACTTTTGC ((.((((....)))).)) , field folding enthalpy: -32.1 kcal/mol

Record GTGCTCGAAAGAGACCAC ((((((....)))..))) , field folding enthalpy: -14.6 kcal/mol

Record GCCATCGAAAGATTGGC ((((((....))).))) , field folding enthalpy: -30.3 kcal/mol

Record GCAAGGCGAAAGCCAGGC ((..(((....)))..)) , field folding enthalpy: -18.8 kcal/mol

Record GGATGCGAAAGCAATTCC ((((((....)))..))) , field folding enthalpy: -16.1 kcal/mol

Record GATCGACGGATCGATC ((((((....)))))) , field folding enthalpy: -29 kcal/mol

Record GATCGGCGGCCCGATC ((((((....)))))) , field folding enthalpy: -35.4 kcal/mol

Record GGTACCCGAAAGGGACC (((.(((....)))))) , field folding enthalpy: -25.9 kcal/mol

Record GTTAGGGGAAACCCTAGC (.(((((....))))).) , field folding enthalpy: -21.5 kcal/mol

Record GGGGGCGAAAGCCTCCCC ((((((....)))..))) , field folding enthalpy: -11.5 kcal/mol

Record GCTGCTCGAAAGAGAGC (((.(((....)))))) , field folding enthalpy: -20.5 kcal/mol

Record GATCTTTGTAAGATC ((((((...)))))) , field folding enthalpy: -28.8 kcal/mol

Record GATTCCGAAAGGAAAATC ((((((....)))..))) , field folding enthalpy: -14 kcal/mol

Record CGTAACGGAAACGTCACG (((.(((....))).))) , field folding enthalpy: -31.7 kcal/mol

Record CGCGGAATAATCCGCG ((((((....)))))) , field folding enthalpy: -34.7 kcal/mol

Record GGATGTCGAAAGACTCC (((.(((....)))))) , field folding enthalpy: -25.3 kcal/mol

Record GTCACCGAAAGGTGGAC ((((((....))).))) , field folding enthalpy: -14.1 kcal/mol

Record GACATACGAAAGTACGTC (((.(((....))).))) , field folding enthalpy: -27 kcal/mol

Record GGTCGTGGAAACGCGATC (.(((.(....).))).) , field folding enthalpy: -26.9 kcal/mol

Record GGCTACGGAAACGTAGTC (.(((((....))))).) , field folding enthalpy: -28.9 kcal/mol

Record TCCCGGAAACGGGA (((((....))))) , field folding enthalpy: -19.7 kcal/mol

Record GACTATGGAAACGTAGTC (((((.(....).))))) , field folding enthalpy: -32.4 kcal/mol

Record GGAATGGGAAACCATTTC (.(((((....))))).) , field folding enthalpy: -34.4 kcal/mol

Record GATCCCATATGGGATC ((((((....)))))) , field folding enthalpy: -35.3 kcal/mol

Record GATCATGTCCATGATC ((((((....)))))) , field folding enthalpy: -42.5 kcal/mol

Record GAGCACGAAAGTGCCCTC ((((((....)))..))) , field folding enthalpy: -9.48 kcal/mol
